Each item that follows carries a reported chromatographic logP.
Test Protocol: log P determination by HPLC (reversed-phase C18), EEC Directive 79/831 Annex V.A8
Type: physicochemical
Condition Details: reversed-phase C18 HPLC column; a) acidic range: 0.1% aqueous phosphoric acid, acetonitrile, linear gradient 10% to 90% acetonitrile; HPLC C18, 43° C.

| Compound | chromatographic logP |
| --- | --- |
| Cn1c(C(F)(F)F)cc(=O)n(-c2cc(Oc3ncccn3)c(Br)cc2F)c1=O [Example 2] | 2.47 |
| O=c1cc(C(F)(F)F)[nH]c(=O)n1-c1cc(Oc2ncccn2)c(Br)cc1F [Example 1] | 1.96 |
